In this section, each of the compounds is paired with its reported IC50.
Measurement Target: histamine H4 receptor (Homo sapiens)
Sequence (Q9H3N8 whole entry): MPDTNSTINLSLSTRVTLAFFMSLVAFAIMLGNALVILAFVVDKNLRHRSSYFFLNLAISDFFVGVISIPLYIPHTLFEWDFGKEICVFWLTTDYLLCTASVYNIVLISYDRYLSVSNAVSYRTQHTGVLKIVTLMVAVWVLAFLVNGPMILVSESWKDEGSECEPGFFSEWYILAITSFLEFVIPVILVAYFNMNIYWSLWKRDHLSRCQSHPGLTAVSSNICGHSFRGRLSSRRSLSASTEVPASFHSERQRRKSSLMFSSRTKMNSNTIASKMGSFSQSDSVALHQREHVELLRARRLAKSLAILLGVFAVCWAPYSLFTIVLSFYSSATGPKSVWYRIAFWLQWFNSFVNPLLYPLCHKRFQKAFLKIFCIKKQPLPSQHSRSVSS
Protocol Notes: H4 Membrane Binding Assay (3H-Histamine displacement)
Run Conditions: membranes of recombinant HEK293SFM cells, 10 nM 3H-Histamine, 1.5 hr at room temperature
Report the value in nM with no unit label.

// query Give IC50 (histamine H4 receptor (Homo sapiens)) of the following compound: `COC(=O)c1cccc(-c2ccc(C[C@H](NC(=O)c3ccc4c(N5CCN(C)CC5)nc(N)nc4c3)C(=O)N(C)C)cc2)c1`
// result 6.6

// query Give IC50 (histamine H4 receptor (Homo sapiens)) of the following compound: `COC(=O)c1ccc(COc2cccc(CNC(=O)c3ccc4c(N5CCN(C)CC5)nc(N)nc4c3)c2)cc1`
// result 7.2

// query Give IC50 (histamine H4 receptor (Homo sapiens)) of the following compound: `CN1CCN(c2cc(-c3ccc4c(c3)CN(C(=O)Cc3ccc(C#N)cc3)CC4)nc(N)n2)CC1`
// result 34
